So I've got a bunch of variants here, and I need their abundance fitness values.
B1: Dystrobrevin alpha, residues 235 to 294; numbered along this chain, Q9Y4J8 (parent)
chain: ENVFHPVECSYCHSESMMGFRYRCQQCHNYQLCQDCFWRGHAGGSHSNQHQMKEYTSWKS

- Variants of: B1
- ASSAY COMMENT: abundance fitness (aPCA) (normalised: wild type 0, dead -1); higher = more abundant; growth selection in yeast, the domain comes from the species named
- MEASUREMENT CONDITIONS: Homo sapiens

INPUT: abundance fitness for G19H ?
OUTPUT: 0.003

INPUT: Give the measured abundance fitness of N29S .
OUTPUT: -0.063

INPUT: So what's the measured abundance fitness for this one? K53D
OUTPUT: -0.16

INPUT: GET /values?readout=abundance fitness&item= S57Q
OUTPUT: -0.059

INPUT: // lookup abundance fitness for S47I
OUTPUT: -0.25

INPUT: Quick one: abundance fitness for M18C ?
OUTPUT: -0.189

INPUT: What does the record list as abundance fitness for H5C ?
OUTPUT: -0.024

INPUT: Look at this variant and give its reported abundance fitness. Q49C
OUTPUT: -0.083

INPUT: Return reported abundance fitness; argument: D35S
OUTPUT: -0.033

INPUT: Consider the variant N2M and give its measured abundance fitness.
OUTPUT: 0.092

INPUT: Reported abundance fitness, variant N48E : ____
OUTPUT: -0.167

INPUT: Please look up its abundance fitness: R23D
OUTPUT: -0.022

INPUT: Requested field: abundance fitness. Item: F20G
OUTPUT: 0.163

INPUT: Quick one: abundance fitness of S14L ?
OUTPUT: -0.153

INPUT: Recorded abundance fitness of K53W , please.
OUTPUT: -0.459

INPUT: What value of abundance fitness has been recorded for this entry: G43P
OUTPUT: -0.765

INPUT: Consider the variant C36R and give its measured abundance fitness.
OUTPUT: -0.695

INPUT: I am curious: what abundance fitness value has been reported for H46L ?
OUTPUT: -0.419

INPUT: Recorded abundance fitness for M52K , please?
OUTPUT: -0.62

INPUT: Given the entry R23Y , report its measured abundance fitness.
OUTPUT: -0.138

INPUT: // abundance fitness lookup, key: H46E
OUTPUT: -0.198

INPUT: Reported abundance fitness for G44E : what is it?
OUTPUT: -0.303

INPUT: Requested field: abundance fitness. Item: N48Q
OUTPUT: -0.084

INPUT: Which abundance fitness value belongs to C27E ?
OUTPUT: -0.717

INPUT: Give its abundance fitness value. Item: M17W
OUTPUT: -0.084

INPUT: Need abundance fitness, item T56E
OUTPUT: 0.307

INPUT: Fill blank: measured abundance fitness of the variant V3W is ____.
OUTPUT: -0.34

INPUT: Can you look up the measured abundance fitness of H41N for me?
OUTPUT: 0.063

INPUT: Give the measured abundance fitness of Q26L .
OUTPUT: -0.287

INPUT: Fill blank: measured abundance fitness of the variant W38T is ____.
OUTPUT: 0.349

INPUT: I am curious: what abundance fitness value has been reported for H5M ?
OUTPUT: -0.114

INPUT: For the variant Q25N , what abundance fitness is on record?
OUTPUT: -0.128

INPUT: Suppose we examine the variant S45Q ; what abundance fitness value has been reported?
OUTPUT: -0.121

INPUT: # get_value(readout='abundance fitness', item= G19M )
OUTPUT: -0.167

INPUT: Value lookup for abundance fitness; key = Q25Y
OUTPUT: -0.327

INPUT: Please report the recorded abundance fitness for G19C .
OUTPUT: -0.191

INPUT: Entry under review: G43D . Reported abundance fitness?
OUTPUT: 0.325

INPUT: Report abundance fitness for T56I please.
OUTPUT: -0.218

INPUT: Name the recorded abundance fitness for R39I .
OUTPUT: -0.308

INPUT: # get_value(readout='abundance fitness', item= K59N )
OUTPUT: 0.017

INPUT: Please look up its abundance fitness: H5W
OUTPUT: -0.143

INPUT: May I ask what abundance fitness has been recorded for Y22A ?
OUTPUT: -0.13

INPUT: Entry H46K : reported abundance fitness = ?
OUTPUT: -0.117

INPUT: Looking for the measured abundance fitness of T56N , can you help?
OUTPUT: -0.045

INPUT: Record request: abundance fitness value, item W58E
OUTPUT: 0.297

INPUT: Endpoint output: abundance fitness of G43A . Value?
OUTPUT: -0.325

INPUT: What value of measured abundance fitness is listed for Q25S ?
OUTPUT: -0.159

INPUT: Find the recorded abundance fitness belonging to T56A and report it.
OUTPUT: 0.017

INPUT: Can you look up the measured abundance fitness of Q51A for me?
OUTPUT: -0.066

INPUT: Give the measured abundance fitness of H13D .
OUTPUT: -0.474

INPUT: GET /values?readout=abundance fitness&item= S47K
OUTPUT: 0.038

INPUT: Any idea what abundance fitness was measured for S60D ?
OUTPUT: 0.335

INPUT: What does the data say about its abundance fitness? Entry: E1R
OUTPUT: -0.462

INPUT: abundance fitness for T56K ?
OUTPUT: 0.066

INPUT: I am curious: what abundance fitness value has been reported for S57M ?
OUTPUT: 0.036

INPUT: So what does the record say about abundance fitness for G44K ?
OUTPUT: -0.177

INPUT: Reported abundance fitness for V7C : what is it?
OUTPUT: 0.004

INPUT: Quick one: abundance fitness of C27V ?
OUTPUT: -0.85

INPUT: # lookup: abundance fitness of Q31L
OUTPUT: -0.153

INPUT: Requested field: abundance fitness. Item: M52P
OUTPUT: -0.478

INPUT: Field request: abundance fitness | item: C12M
OUTPUT: -1.11

INPUT: Returns the measured abundance fitness for the input variant. Input: F37A
OUTPUT: -0.043

INPUT: Looking for the measured abundance fitness of Y30M , can you help?
OUTPUT: -0.288

INPUT: Item V7I has what recorded abundance fitness?
OUTPUT: -0.023

INPUT: Consider the variant shown here: C24V What is its recorded abundance fitness?
OUTPUT: -0.838

INPUT: Request the reported abundance fitness associated with D35Q
OUTPUT: -0.204

INPUT: Please look up its abundance fitness: S10E
OUTPUT: -0.394

INPUT: Which measured abundance fitness value corresponds to H41C ?
OUTPUT: 0.013

INPUT: Entry F4G has what abundance fitness?
OUTPUT: -0.014

INPUT: Can you share its abundance fitness? I mean this variant: F37C
OUTPUT: -0.473

INPUT: Given the entry K59E , report its measured abundance fitness.
OUTPUT: -0.127

INPUT: Tell me the measured abundance fitness of S45N , please.
OUTPUT: -0.13

INPUT: Give the measured abundance fitness of M52Q .
OUTPUT: -0.294

INPUT: State the recorded abundance fitness for this entry: F37Y
OUTPUT: -0.052

INPUT: Look at this variant and give its reported abundance fitness. R39F
OUTPUT: -0.34

INPUT: Which abundance fitness is reported for this variant? E15H
OUTPUT: 0.078

INPUT: abundance fitness lookup needed for H28C , thanks.
OUTPUT: -0.093

INPUT: Recorded abundance fitness of N48I , please.
OUTPUT: -0.177

INPUT: Find the recorded abundance fitness belonging to S16T and report it.
OUTPUT: 0.014

INPUT: Could you tell me which abundance fitness is on file for G19Q ?
OUTPUT: 0.046

INPUT: I would be grateful if you could share the reported abundance fitness for E15P .
OUTPUT: 0.1

INPUT: Entry under review: S14C . Reported abundance fitness?
OUTPUT: -0.086

INPUT: # lookup: abundance fitness of C36S
OUTPUT: -0.992

INPUT: Bench note: what abundance fitness did H5G show?
OUTPUT: -0.127

INPUT: Return reported abundance fitness; argument: M17I
OUTPUT: 0.045

INPUT: Given V3Y , state its recorded abundance fitness.
OUTPUT: 0.018

INPUT: Data request, read-out abundance fitness, for C36W
OUTPUT: -0.94

INPUT: Form field: reported abundance fitness of H13E
OUTPUT: -0.23

INPUT: Endpoint output: abundance fitness of Y22C . Value?
OUTPUT: -0.409

INPUT: Look up abundance fitness: M18A
OUTPUT: 0.199

INPUT: // lookup abundance fitness for S45M
OUTPUT: -0.269
